# Measurement target: T1, MBNL1 (1-272) (UniProt Q9NR56 1-272)
# T1 sequence: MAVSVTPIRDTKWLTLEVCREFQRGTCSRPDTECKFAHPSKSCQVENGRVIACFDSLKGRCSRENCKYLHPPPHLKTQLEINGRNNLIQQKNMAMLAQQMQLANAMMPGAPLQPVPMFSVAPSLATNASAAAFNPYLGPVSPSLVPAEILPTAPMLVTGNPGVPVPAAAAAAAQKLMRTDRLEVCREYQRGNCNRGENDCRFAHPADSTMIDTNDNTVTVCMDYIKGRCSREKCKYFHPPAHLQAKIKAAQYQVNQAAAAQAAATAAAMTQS
# Assay comment: EMSA
Outcome measure: Kd (nM)
Your answer is read as nM, so omit the unit and give the number.

CCUGCCUGCCUGCCUGCCUGCCUG (structured_RNA) [(CCUG)6] = 15

Item under review: CUGCUGCUGCUGCUGCUGCUGCUGCUGCUGCUGCUG (structured_RNA) [(CUG)12] . Reported Kd? 150
